- Tested on: Echovirus E11
- experiment-notes: Antiviral activity against Echovirus 11 after 2 to 3 days
- Format: functional
- conditions: Enterovirus B
pEC50: −log10 of the molar value.
quantity-name: pEC50

> print(dat)
                              record.smiles  quantity.name  test.value
1  CC(=O)c1cccc(Nc2nc(-c3sc(NC(=O)OC(C)(C)C)nc3C)cs2)c1          pEC50        5.53
2  CC(=O)c1cccc(Nc2nc(-c3sc(NC(=O)C(C)(C)C)nc3C)cs2)c1          pEC50        6.14
3  CC(=O)c1cccc(Nc2nc(-c3sc(NC(=O)C(F)(F)F)nc3C)cs2)c1          pEC50        5.45
4  CC(=O)c1cccc(Nc2nc(-c3sc(NC(=O)c4ccccc4)nc3C)cs2)c1          pEC50        5.75
5  CCC(=O)Nc1nc(C)c(-c2csc(Nc3cccc(C(C)=O)c3)n2)s1          pEC50        6.01
6  CC(=O)Nc1nc(C)c(-c2csc(Nc3cccc(C(C)=O)c3)n2)s1          pEC50        5.80
